Reported sensor-assay potency score (higher = more potent) by item:
Target: PGBD3
Assay: pooled miR-30 sensor sort-seq; sequence = guide strand; also: reference of the scale not given here
Conditions: shRNA

• TTTCTTTAAAGCTACATCTGAT = -0.534
• TTCATCAGGAGAGTCATCTTTA = 0.38
• TTGTGTTCTTATGACATTCAGC = -0.605
• TTTTCTTTAAAGCTACATCTGA = -0.486

// next entry
Please state recorded sensor-assay potency score (higher = more potent) (tested on PGBD3) of TTCATTTGGAACAAATTTCATG
-0.714

---

Reported sensor-assay potency score (higher = more potent) values for a set of sequences
Target: PPEF1
Experiment: pooled miR-30 sensor sort-seq; sequence = guide strand
Conditions: shRNA
Give the figure only, with no unit attached.

Worked cases, answers included:
- TATCGAGTCCACATAATCCCAT: -1.01
- TTATGCAAAATTTCTTTCGTGA: 0.493
- TAATCTTACCAATAACAGCTTG: -0.683
- TTGTTCATCAGCATATTCGATG: -0.664
- TTTTATTGTGCTTCGAGTCAGT: 0.317

Fill in the blank: the reported sensor-assay potency score (higher = more potent) of TTTTCTGTGGTCTTGAAGTTGG is ____.
-0.736

Value lookup for sensor-assay potency score (higher = more potent); key = TAGTAGTTTTCTCTTGTGCTGT
-0.247

---

Molecular target: CNGB1
Assay: pooled miR-30 sensor sort-seq; sequence = guide strand
Details: shRNA
Metric: sensor-assay potency score (higher = more potent)
Please state the value as a number alone, without comment.

Answered cases to consult:
- TTGTCCGTAATGATGTCCCCGC: -0.775
- TTCTCTTCTTCATAAGCTGGAA: -0.514
- TCTTTCTCCTCTTCAATCCGGG: -0.237

Recorded sensor-assay potency score (higher = more potent) of TCGCATGTCCTTTTTGTCCGTA , please.
-0.378

Quick check: sensor-assay potency score (higher = more potent) of TAGGACATACATCAGGTTGGTC ?
0.2

Can you share its sensor-assay potency score (higher = more potent)? I mean this sequence: TTTCTCTGTCCGCTCCTTGAAG
-0.823

What value of measured sensor-assay potency score (higher = more potent) is listed for TACATCAGGTTGGTCAGCGGGT ?
-0.543

GET /values?readout=sensor-assay potency score (higher = more potent)&item= TTTCTTCCGGAGTAACTTCTGA
-0.522

Need sensor-assay potency score (higher = more potent), item TAGTAGGTCTGTCCGGCGGTGG
-0.909

Data request, read-out sensor-assay potency score (higher = more potent), for TTCACCGTGCTGTCCATGCAGC
-0.762

Please report the recorded sensor-assay potency score (higher = more potent) for TTTGCTAACGATGTTGTAGTTC .
0.184

Value lookup for sensor-assay potency score (higher = more potent); key = TAAGCTGGAACCACCTCTGTAC
0.05

Which value of sensor-assay potency score (higher = more potent) has been reported for TTCTTGCACACATAGTCGTTGG in the records?
-0.837

---

The following sequences are shown together with reported sensor-assay potency score (higher = more potent) values.
Biological target: RAB28
Test: pooled miR-30 sensor sort-seq; sequence = guide strand
Conditions: shRNA
Hey, just send me the number, nothing else.

So what's the measured sensor-assay potency score (higher = more potent) for this one? ATTTGTAATATCATATACCAAG
-1.51

If you can, please state the reported sensor-assay potency score (higher = more potent) value of TTATTGTTCGCATATGCTCCAA .
-0.667

---

Target: KRTAP8-1
Test: pooled miR-30 sensor sort-seq; sequence = guide strand
Conditions: shRNA
Reported sensor-assay potency score (higher = more potent) values are given for each entry in this list.

- ACAGCCAACGCTATATCCCAGC: -1.47
- TATATCCCAGCGGGTAGCCATA: -1.94
- TAGCATCCTGGGAAGACAGCCC: -0.588
- TTGGAAAGCAGTGTCTCTGAGG: -0.482

Please report the recorded sensor-assay potency score (higher = more potent) for AGCCGTTGTAGCCATAGCCGAA .
-1.46

Can you share its sensor-assay potency score (higher = more potent)? I mean this sequence: TAGCCGAAAGCCCCACAGCCGT
-1.72

Fill blank: measured sensor-assay potency score (higher = more potent) of the sequence ATCCTGGGAAGACAGCCCCGGG is ____.
-1.89

---

Measured sensor-assay potency score (higher = more potent) accompanies every entry in the list below.
Biological target: HES7
Assay: pooled miR-30 sensor sort-seq; sequence = guide strand
Conditions: shRNA

Check out these entries, answers already filled in.
- TTCCGGAGGTTCTGGTCCCGGG: -1.41
- TATCTCCGCTTTCTCCAGCTTC: -1.2

sensor-assay potency score (higher = more potent) lookup needed for TTGGGCGCCCCGTCTTGTCTGT , thanks.
-1.06

GET /values?readout=sensor-assay potency score (higher = more potent)&item= TTCGCTCCCTCAAGTAGCCCAC
-0.598

What does the data say about its sensor-assay potency score (higher = more potent)? Entry: AAACCGGACAAGTAGCAGCTGG
-0.705

Looking for the measured sensor-assay potency score (higher = more potent) of AGCGGCTTGAGCATCTTGGGGC , can you help?
-0.755

sensor-assay potency score (higher = more potent) for AAGCGAAGCAGGCACTCGCGGA ?
-1.48

Entry under review: TTTCTCCAGCTTCGGGTTCCGG . Reported sensor-assay potency score (higher = more potent)?
-1.22

---

Target: SNX29
Assay: pooled miR-30 sensor sort-seq; sequence = guide strand
Details: shRNA
// Not met strictly below -0.5 in sensor-assay potency score (higher = more potent); Met otherwise

* TTCTTTCGTAGGAGCTTGCGAG | Not met
* TAACTTGTGGTGCAAACTCCTG | Not met

hey, is sensor-assay potency score (higher = more potent) for this one >= -0.5? TTGGACTTTGAGCACCTCGTTC
Not met

Dear colleague, could you confirm whether TTTCTTTCGTAGGAGCTTGCGA has sensor-assay potency score (higher = more potent) at or above -0.5?
Not met

Textbook exercise: given the entry TTGACCTTCTCTTTTCAGCATC , state whether its sensor-assay potency score (higher = more potent) is greater than or equal to -0.5.
Not met

Is reported sensor-assay potency score (higher = more potent) greater than or equal to -0.5 here: TTGAGCACCTCGTTCTCTCTGG
Not met

Assess whether reported sensor-assay potency score (higher = more potent) for TTCTTCAGCAATTTCTCCCGGC sits at -0.5 or higher.
Met

Reported sensor-assay potency score (higher = more potent) reaches at least -0.5 for AACTTCTCCATCAACACTCCAA ?
Met

Check the entry TACTTGTTTTGTAACTTGTGGT : does sensor-assay potency score (higher = more potent) equal or exceed -0.5?
Met

Exam item: decide whether the reported sensor-assay potency score (higher = more potent) for TTTTATCCGGATGTAGACCTGA is at least -0.5.
Met

Is sensor-assay potency score (higher = more potent) for TTCATCGTCTTTTATCCGGATG at or above -0.5?
Not met

---

Biological target: MFNG
Assay: pooled miR-30 sensor sort-seq; sequence = guide strand
Details: shRNA
Parameter threshold = -0.6. Response is yes when sensor-assay potency score (higher = more potent) meets or exceeds it, else no.

Some entries whose results are on file:
* TCTTGCAGGACAGAGCTGGGTG | yes
* TTGTCATCGTCCACATGGCAGA | no
* AACTGTACCAGCCTCGTGCGGT | no
* TCGAACTCAGCAGCCATCTTGC | no

API: above_or_equal(metric=sensor-assay potency score (higher = more potent), cutoff=-0.6) for item TTTGTCTGGGCTGTCGGTGAAG
no

Record TTGCGATTGATGCAGAAGCCAG ; criterion: sensor-assay potency score (higher = more potent) no lower than -0.6. Met?
no

Decide: is the reported value of sensor-assay potency score (higher = more potent) for TAGTTGTCATCGTCCACATGGC equal to or greater than -0.6?
yes

---

Target: PRDM11
Assay: pooled miR-30 sensor sort-seq; sequence = guide strand
Settings: shRNA
# binarize sensor-assay potency score (higher = more potent): threshold -0.7 inclusive, high side True, low side False

Please review the following examples before continuing.
* TTGCACACTGACTGTAGGCGTC | True
* TTTCTTCTTCTTAGCTTGGGGG | False
* TATATTCTGCACACCATGGGTC | True
* TTCTTCTTCTTAGCTTGGGGGT | False
* TCATCCAAACCAACTTACCTGC | True
* TAAGCATGTCTAATTCTGCCTG | True
* TTCTGGGTTATCCAGAACCTGC | False
* TTTTCTTCTTCTTAGCTTGGGG | True
* TGTTGTTGCACACTGACTGTAG | True

Does the reported sensor-assay potency score (higher = more potent) for TAATTCTGCCTGGAGCTCCCGA fall at or above the -0.7 mark?
True
